Just for reference, ChEMBL document CHEMBL1140734 is where these values come from.

Organism: Homo sapiens
Assay: Selectivity for human adenosine A2A receptor over human adenosine A1 receptor
OUTCOME MEASURE: Ratio Ki

Consider the worked cases shown below.
CC(=O)Nc1cc(-n2cccn2)nc(-c2ccco2)n1 ... 15
CN(C)CC(=O)Nc1cc(-n2cccn2)nc(-c2ccco2)n1 ... 5
Nc1cc(-n2cccn2)nc(-c2ccco2)n1 ... 20

Please look up its Ratio Ki: `O=C(CN1CCOCC1)Nc1cc(-n2cccn2)nc(-c2ccco2)n1`
39

Please look up its Ratio Ki: `CN1CCN(CC(=O)Nc2cc(-n3cccn3)nc(-c3ccco3)n2)CC1`
99

Please look up its Ratio Ki: `Cc1cc(C)n(-c2cc(NC(=O)CN3CCN(C)CC3)nc(-c3ccco3)n2)n1`
864

Please look up its Ratio Ki: `CN1CCN(CC(=O)Nc2cc(-c3nccs3)nc(-c3ccco3)n2)CC1`
238

----------
Experiment: Dissociation constant, pKa of the compound
Assay type: physicochemical
OUTCOME MEASURE: pKa
Enter a number only.

Please look up its pKa: `CN1CCN(CC(=O)Nc2cc(-n3cccn3)nc(-c3ccco3)n2)CC1`
7.9

----------
Protein target, amino acids: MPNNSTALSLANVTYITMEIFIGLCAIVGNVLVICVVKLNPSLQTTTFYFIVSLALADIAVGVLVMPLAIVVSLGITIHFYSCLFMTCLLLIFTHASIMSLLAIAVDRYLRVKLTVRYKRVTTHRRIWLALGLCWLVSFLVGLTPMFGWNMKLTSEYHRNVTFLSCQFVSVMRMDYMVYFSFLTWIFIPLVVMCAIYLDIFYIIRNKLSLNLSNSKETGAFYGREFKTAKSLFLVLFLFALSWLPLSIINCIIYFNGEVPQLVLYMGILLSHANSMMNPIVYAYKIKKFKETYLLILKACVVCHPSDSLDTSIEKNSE
OUTCOME MEASURE: Ki (µM)
Your answer should be a plain number; it is taken to be in µM.

Please look up its Ki: `CN1CCN(CC(=O)Nc2cc(-n3cccn3)nc(-c3ccco3)n2)CC1`
0.66
